The measured values listed here are drawn from paper PMC7394244.

# System: R1BC1A
# ASSAY DETAILS: microbe, parasite or virus in culture
# TEST SETTINGS: Plasmodium falciparum, read-out: EC50 R1BC1A
QUANTITY MEASURED: EC50

**Query** // EC50 lookup, key: `Cc1cc(Nc2ccc(S(F)(F)(F)(F)F)cc2)n2nc(C(C)(F)F)nc2n1`
**Result** 80 nM

----------
# Tested on: Pf3D7 cells
# ASSAY DETAILS: P. falciparum 3D7 growth inhibition
# Type: cell-based
# TEST SETTINGS: read-out: EC50 Pf3D7 cells
// EC50 lookup, one value per entry
Quick reminder: number only, in nM, skip the unit.

[
  {
    "STRUCTURE": "Cc1[nH]c(C(=O)NC2CCC2)c(C)c1Cc1ccc(C(F)(F)F)cn1",
    "UNIT STRING": "nM",
    "READOUT VALUE": 680
  },
  {
    "STRUCTURE": "CCOC(=O)c1[nH]c(C)c(Cc2ccc(C(F)(F)F)cc2)c1C",
    "UNIT STRING": "nM",
    "READOUT VALUE": 71
  },
  {
    "STRUCTURE": "Cc1c(Cc2ccc(C(F)(F)F)nc2)c[nH]c1C(=O)NCC(F)(F)F",
    "UNIT STRING": "nM",
    "READOUT VALUE": 59
  }
]

**Query** // EC50 lookup, key: `CCOC(=O)c1[nH]c(C)c(Cc2ccc(OCC)cc2)c1C`
**Result** 250

----------
# ASSAY DETAILS: Blood exposure in P. falciparum-infected SCID mice
# Assay type: in vivo
# TEST SETTINGS: NOD-scidIL2Rγnull, mouse, whole blood, po, 50 mg/kg
QUANTITY MEASURED: AUC(0-t)
Quote the value and follow it with the unit of measurement.

**Query** // AUC(0-t) lookup, key: `Cc1c(Cc2ccc(C(F)(F)F)nc2)c[nH]c1C(=O)NC1CC1`
**Result** 8600 ng·h/mL
